Reported aptazyme ON/OFF ratio is given for each of the following variants.
B1: Pistol ribozyme (parent)
chain: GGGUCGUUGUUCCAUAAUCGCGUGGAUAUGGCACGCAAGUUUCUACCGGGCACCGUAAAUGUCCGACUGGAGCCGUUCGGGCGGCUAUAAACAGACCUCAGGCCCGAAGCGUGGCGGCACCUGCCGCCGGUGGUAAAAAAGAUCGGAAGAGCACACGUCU

Variants of: B1
Assay: aptazyme ON/OFF ratio, guanine; higher = stronger switching; co-transcriptional cleavage with and without guanine
Just the number, please, no unit attached.

mutation.notation	aptazyme ON/OFF ratio
U7G U8A U10A U11A C12A C13A	1.21
U7G U8C G9A U10A U11C C12A C13G	1.25
G9A U10A C12G	1.61
U7A U8C G9A U10C C12A	1.21
U7A U8G U11A C12U C13A	1.5
U8A G9C U10G C12G	1.17

Bench note: what aptazyme ON/OFF ratio did U7C U8A G9U U11G C12U C13G show?
1.17

Queued: U7G G9A C12G
1.2

Queued: U7G U8C G9C U10G U11C C13G
1.36

Queued: U7G U8C G9U U10G U11C C12A C13A
1.23

Queued: U7A U8A G9A U10G C12A C13U
1.2

Queued: U7G G9U U10A U11C C12U C13U
1.39

Queued: U7G U8A G9A U10G U11G
1.07

Queued: U8G U10G C12A C13G
1.19
